- TARGET_OR_SYSTEM: Glycogen synthase kinase-3 beta (Homo sapiens)
- DETAILS: Compound concentration 20.0 uM
- Description: Thermal Shift Assay. Domain: start/stop: M26-R383
MEASURED_QUANTITY: ΔTm (°C)
# unit: °C | format: bare number

I'd like to know its ΔTm. The compound in question is N#Cc1cc2cc(CN3CCC(Nc4ncnc5sc(CC(F)(F)F)cc45)CC3)ccc2[nH]1
-0.5

I'd like to know its ΔTm. The compound in question is CCc1oc2ccccc2c1C(=O)c1cc(Br)c(O)c(Br)c1
0

---
I'd like to know its ΔTm. The compound in question is CCCOC(=O)N1CCN(C(=O)c2ccc3c(Cl)cc(-c4ccc(C5(N)CC5)cc4)nc3c2)C[C@H]1C
-1.68

I'd like to know its ΔTm. The compound in question is CC(C)[C@@H]1C(=O)N(S(C)(=O)=O)[C@@H]2CCN(C(=O)/C=C/CN3CCCCC3)[C@H]21
-1.7

---

- TARGET_OR_SYSTEM: Mitogen-activated protein kinase 1 (Homo sapiens) (UniProt P28482)
- Sequence (P28482 whole entry): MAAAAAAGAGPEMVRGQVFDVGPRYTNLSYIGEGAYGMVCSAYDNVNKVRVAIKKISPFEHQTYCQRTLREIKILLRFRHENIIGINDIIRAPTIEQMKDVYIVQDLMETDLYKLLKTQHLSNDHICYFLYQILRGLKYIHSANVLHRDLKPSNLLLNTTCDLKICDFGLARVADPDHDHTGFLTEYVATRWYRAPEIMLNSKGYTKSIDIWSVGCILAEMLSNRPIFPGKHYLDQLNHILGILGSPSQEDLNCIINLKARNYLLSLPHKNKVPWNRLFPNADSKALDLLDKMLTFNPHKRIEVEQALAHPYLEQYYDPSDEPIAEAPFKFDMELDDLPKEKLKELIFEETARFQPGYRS
- DETAILS: Compound concentration 20.0 uM
- Description: Thermal Shift Assay. Domain: start/stop: M1-S360
Under this convention, Criterion met denotes ΔTm strictly below 0.2 °C and Criterion not met denotes ΔTm at or above 0.2 °C.

In the record for CC(=O)Nc1ccc(-c2cc(-c3ccccc3)nc3cc(C(=O)NCCCn4ccnc4)nn23)cc1 , is ΔTm less than 0.2 °C?
Criterion not met

In the record for C[C@@H]1CN(c2nccc(Nc3ccc4c(c3)n(CCC(C)(C)O)c(=O)n4C)n2)C[C@H](C)C1(F)F , is ΔTm less than 0.2 °C?
Criterion met

In the record for CCN1C(C)(C)CC(Oc2ccc(C(=O)Nc3ccc(NC(=O)Nc4cc(C(C)(C)C)on4)cc3)nc2)CC1(C)C , is ΔTm less than 0.2 °C?
Criterion met

---
In the record for Cc1cc(C)c(CNC(=O)c2cc(Cl)c3c(c2C)O[C@@](C)([C@H]2CC[C@H](N(C)C)CC2)O3)c(=O)[nH]1 , is ΔTm less than 0.2 °C?
Criterion met

In the record for CN(C)CCCNC(=O)c1ccc(-c2cc(O)c3ncccc3c2)cc1 , is ΔTm less than 0.2 °C?
Criterion not met

In the record for COc1cccc(OC)c1S(=O)(=O)Nc1noc2cc(Cn3cccn3)cc(OC)c12 , is ΔTm less than 0.2 °C?
Criterion met

In the record for Nc1nc(C(F)(F)F)nc2c1nnn2C[C@H]1CN(Cc2nccs2)CCO1 , is ΔTm less than 0.2 °C?
Criterion not met

In the record for NC(=O)C1CCCc2c1[nH]c1ccc(Cl)cc21 (centres undefined) , is ΔTm less than 0.2 °C?
Criterion met

---

- TARGET_OR_SYSTEM: Aurora kinase A (Homo sapiens)
- Sequence (whole entry): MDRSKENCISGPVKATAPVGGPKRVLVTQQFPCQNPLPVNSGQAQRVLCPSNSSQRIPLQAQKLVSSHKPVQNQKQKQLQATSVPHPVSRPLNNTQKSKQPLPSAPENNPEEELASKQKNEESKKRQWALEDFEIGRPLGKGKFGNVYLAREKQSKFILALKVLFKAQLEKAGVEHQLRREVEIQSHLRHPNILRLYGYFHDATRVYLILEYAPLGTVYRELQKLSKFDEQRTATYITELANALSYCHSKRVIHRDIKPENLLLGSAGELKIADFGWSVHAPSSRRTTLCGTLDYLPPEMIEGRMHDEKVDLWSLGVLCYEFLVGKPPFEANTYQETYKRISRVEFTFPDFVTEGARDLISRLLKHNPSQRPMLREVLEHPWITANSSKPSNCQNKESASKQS
- DETAILS: Compound concentration 20.0 uM
- Description: Thermal Shift Assay. Domain: start/stop: E122-S403
Residues, ends and D or L forms follow the SMILES beside them.
Under this convention, Criterion met denotes ΔTm strictly below -0.4 °C and Criterion not met denotes ΔTm at or above -0.4 °C.

Worked set:
In the record for C[C@H](CN[C@@H](C(=O)Nc1ccc(-c2cnn(C)c2)cn1)c1ccccc1)c1ccc(C#N)cc1 , is ΔTm less than -0.4 °C?
Criterion met

In the record for Cc1cc(C(=O)N2CCN(C3CN(C(=O)c4ccc(-c5ccccc5)cc4)C3)CC2)no1 , is ΔTm less than -0.4 °C?
Criterion not met

In the record for CC[C@H](C)[C@H](NC(=O)[C@H](CCC(=O)O)NC(=O)[C@@H](NC(C)=O)C(C)C)C(=O)N[C@H](C=O)CC(=O)O (Ac-VEID-aldehyde) , is ΔTm less than -0.4 °C?
Criterion met

In the record for O=C1/C(=N/Nc2ccc(S(=O)(=O)O)cc2)C(c2ccc([N+](=O)[O-])cc2)=NN1c1ccccc1 , is ΔTm less than -0.4 °C?
Criterion met

In the record for O=[N+]([O-])c1c(Nc2cc(F)cc(Cl)c2)ccc2nonc12 , is ΔTm less than -0.4 °C?
Criterion met

Now take the following molecule into account.
In the record for O=C(NO)c1ccc(CN(c2cnccn2)c2cnccn2)cc1 , is ΔTm less than -0.4 °C?
Criterion not met

---

As shown below, each of these molecules has a reported ΔTm value.
- TARGET_OR_SYSTEM: Cyclin-dependent kinase 2 (Homo sapiens)
- DETAILS: Compound concentration 20.0 uM
- Description: Thermal Shift Assay. Domain: start/stop: M1-L298
# unit: °C | format: bare number

Give Cyclin-dependent kinase 2 (Homo sapiens) ΔTm for Nc1ccccc1NC(=O)c1ccc(CNc2nccc(-c3cccnc3)n2)cc1
0.7

Give Cyclin-dependent kinase 2 (Homo sapiens) ΔTm for C[C@@H](COCCC(=O)N1CCN(c2ncc(C(F)(F)F)cn2)CC1)Nc1cn[nH]c(=O)c1C(F)(F)F
-0.01

Give Cyclin-dependent kinase 2 (Homo sapiens) ΔTm for COc1ccc(C2C(C#N)=C(N)OC3=C2C(=O)CC(c2cccc4ccccc24)C3)cc1 (stereo unspecified)
-0.04

---
Give Cyclin-dependent kinase 2 (Homo sapiens) ΔTm for COc1cc(Cl)ccc1C1=CN(c2ccc(-c3ccccc3OC)cc2)C2=NCCCN12
-0.6

Give Cyclin-dependent kinase 2 (Homo sapiens) ΔTm for CN(C)CCCCC(=O)Nc1ccc(NC(=S)NC(=O)c2ccc(C(C)(C)C)cc2)cc1
0.19

Give Cyclin-dependent kinase 2 (Homo sapiens) ΔTm for Cn1cc(NC(=O)c2cc(F)cc(F)c2)c(C(=O)NC2CCNCC2)n1
-0.02

Give Cyclin-dependent kinase 2 (Homo sapiens) ΔTm for Cc1cc(Cn2c(=O)n(Cc3cnc(C)s3)c(=O)c3cc(S(=O)(=O)NC4(C)CC4)ccc32)n(C)n1
0.24

Give Cyclin-dependent kinase 2 (Homo sapiens) ΔTm for CCOc1ccc2nc(-c3cccc(OCC(=O)NC(C)C)c3)nc(Nc3ccc(-c4cn[nH]c4)cc3)c2c1
0.3

Give Cyclin-dependent kinase 2 (Homo sapiens) ΔTm for CN1CCN(c2nc(-c3ccc(C(=O)NC4(C(=O)NCC#N)CCCCC4)cc3)cs2)CC1
0.12

Give Cyclin-dependent kinase 2 (Homo sapiens) ΔTm for Cc1nn(CC(F)(F)F)cc1Nc1ncc(Br)c(NCc2ccc(S(N)(=O)=O)cc2)n1
0.52

Give Cyclin-dependent kinase 2 (Homo sapiens) ΔTm for CN(Cc1cc(Br)cc(Br)c1N)C1CCCCC1
-0.09

Give Cyclin-dependent kinase 2 (Homo sapiens) ΔTm for CNCC[C@@H](Oc1ccccc1C)c1ccccc1
0.13

Give Cyclin-dependent kinase 2 (Homo sapiens) ΔTm for N#C[C@@H]1CCCN1C(=O)[C@@H]1CCCN1C(=O)CCCc1ccccc1
0.09

---

As shown below, each of these molecules has a reported ΔTm value.
- TARGET_OR_SYSTEM: Mitogen-activated protein kinase 1 (Homo sapiens)
- DETAILS: Compound concentration 20.0 uM
# unit: °C | format: bare number

I'd like to know its ΔTm. The molecule in question is O=c1[nH]ccc2cc(F)c(NS(=O)(=O)c3ccc(N4CC[C@@H](O)C4)s3)cc12
0.11

I'd like to know its ΔTm. The molecule in question is CN(CCOc1ccc(-c2ccc3c(c2)OCO3)cc1C(C)(C)C)CC(=O)O
0.46

I'd like to know its ΔTm. The molecule in question is CC(=O)N[C@@H](CC(=O)O)C(=O)N[C@@H](CCC(=O)O)C(=O)N[C@H](C(=O)N[C@H](C=O)CC(=O)O)C(C)C
-0.74

Now consider a different molecule.
I'd like to know its ΔTm. The molecule in question is Cn1cc(C(=O)Nc2ccc([C@@H]3C[C@H]3NCC3CC3)cc2)cn1
0.06

---

- TARGET_OR_SYSTEM: Glycogen synthase kinase-3 beta (Homo sapiens) (UniProt P49841)
- Sequence (P49841 whole entry, looked up): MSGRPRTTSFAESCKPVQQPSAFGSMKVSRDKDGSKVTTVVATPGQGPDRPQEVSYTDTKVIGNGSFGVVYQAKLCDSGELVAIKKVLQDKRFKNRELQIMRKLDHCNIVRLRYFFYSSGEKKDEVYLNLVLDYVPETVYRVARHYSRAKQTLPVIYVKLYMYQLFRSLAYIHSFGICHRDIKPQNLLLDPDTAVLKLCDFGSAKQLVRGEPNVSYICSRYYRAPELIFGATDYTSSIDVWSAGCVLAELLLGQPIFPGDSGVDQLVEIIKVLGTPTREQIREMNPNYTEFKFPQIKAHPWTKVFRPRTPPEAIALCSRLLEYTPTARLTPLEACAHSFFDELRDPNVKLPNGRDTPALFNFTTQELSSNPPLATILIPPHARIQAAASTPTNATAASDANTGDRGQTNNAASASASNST
- DETAILS: Compound concentration 20.0 uM
MEASURED_QUANTITY: ΔTm (°C)
# unit: °C | format: bare number

I'd like to know its ΔTm. The molecule in question is OC[C@H]1O[C@@H](c2ccc(Cl)c(Cc3ccc(OCCOC4CC4)cc3)c2)[C@H](O)[C@@H](O)[C@@H]1O
-0.38

I'd like to know its ΔTm. The molecule in question is Cc1n[nH]c(C)c1Cc1sc2c(c1C(=O)N1C[C@H](O)CO1)c(=O)n(C)c(=O)n2CC(C)C
-0.85

I'd like to know its ΔTm. The molecule in question is CC(C)(C)c1ccc(CN(C(=O)CN(Cc2c(F)c(F)c(F)c(F)c2F)S(=O)(=O)c2ccc(F)cc2)c2ccc(C(=O)NO)cc2)cc1
14.4

Now consider a different molecule.
I'd like to know its ΔTm. The molecule in question is C[C@@H]1OC(=O)NN=C1c1ccc(-c2ccc(F)cc2)c(C(F)(F)F)c1
-7.28
